# experimentalTarget: UniProt P08588
# measurementProtocol: Agonist activity at human adrenergic receptor expressed in CHO cells assessed as cAMP accumulation
attributeMeasured: EC50 (nM)

[P] O=C(Cc1ncc[nH]1)Nc1ccc(CCNC[C@H](O)COc2ccccc2)cc1
[Q] Cc1cc(C)nc(CC(=O)Nc2ccc(CCNC[C@H](O)COc3ccccc3)cc2)c1
Prompt line: Recorded EC50 values differ for P and Q ; which one is higher? Selection: enter the item's label.
Response line: P

* * *

These compounds were tested on Beta-3 adrenergic receptor (Homo sapiens); EC50 is the recorded read-out.
attributeMeasured: EC50 (nM)

Prompt line: Can you share its EC50? I mean this compound: O=C(Cc1nccn1Cc1ccc(Br)cc1)Nc1ccc(CCNC[C@H](O)COc2ccccc2)cc1
Response line: 190

[P] O=C(Cc1nccn1Cc1ccc(Cl)cc1)Nc1ccc(CCNC[C@H](O)COc2ccccc2)cc1
[Q] O=C(Cc1ccccn1)Nc1ccc(CCNC[C@H](O)COc2ccccc2)cc1
[R] CCCN(C(=O)Cc1nccn1Cc1ccccc1)c1ccc(CCNC[C@H](O)COc2ccccc2)cc1
Prompt line: Write the entries in order, lowest recorded EC50 first. Returns: the labels listed in the requested order.
Response line: P, R, Q
(P: 270 nM, R: 500 nM, Q: 120000 nM)
